Assay: Metabolic stability in human liver microsomes assessed as elimination half life at 1 uM by LC-MS/MS analysis
Format: ADME, Microsome
Conditions: read-out: beta t1/2
assay endpoint: half-life at 1 µM (min)
Provide only the numeric value, understood in min.

Req: Any idea what half-life at 1 µM was measured for "Cc1ccc(Cc2ccnc(Nc3ccc4c(=O)c(C(=O)O)cn(C5CC5)c4c3)n2)cc1C" ?
Resp: 49.4

Req: Any idea what its half-life at 1 µM is? The molecule is "O=C(O)c1cn(C2CC2)c2cc(Nc3nccc(Cc4ccc(F)cc4F)n3)ccc2c1=O"
Resp: 45

Req: Which half-life at 1 µM is reported for this molecule? "Cc1ccc(Oc2ccnc(Nc3ccc4c(=O)c(C(=O)O)cn(C5CC5)c4c3)n2)cc1C"
Resp: 25.9

Req: What does the record list as half-life at 1 µM for "Cc1ncc2n1-c1ccc(Cl)cc1C(c1ccccc1F)=NC2" ?
Resp: 2.77

###

Assay: Metabolic stability in rat liver microsomes assessed as liver intrinsic clearance at 1 uM by LC-MS/MS analysis
Format: ADME, Microsome
Settings: read-out: CLH
Exercise: state measured CLint scaled at 1 µM for each of the molecules provided.
Please give a number only; it is taken to be in mL/min/kg.

Req: Which CLint scaled at 1 µM value belongs to "O=C(O)c1cn(C2CC2)c2cc(Nc3nccc(Cc4ccc(F)cc4F)n3)ccc2c1=O" ?
Resp: 60.9

Req: Reported CLint scaled at 1 µM for "Cc1ccc(Cc2ccnc(Nc3ccc4c(=O)c(C(=O)O)cn(C5CC5)c4c3)n2)cc1C" : what is it?
Resp: 42.2

###

Experiment: Tmax in male Sprague-Dawley rat at 20 mg/kg, po administered as single dose and measured upto 24 hrs by LC-MS/MS analysis
Format: ADME, organism-based
Settings: in vivo
assay endpoint: Tmax
Write your answer as a measured quantity: the number, then the unit.

Req: # Tmax lookup, item "O=C(O)c1cn(C2CC2)c2cc(Nc3nccc(Cc4ccc(F)cc4F)n3)ccc2c1=O"
Resp: 2.67 h

###

Assay: Half life in male Sprague-Dawley rat at 20 mg/kg, po administered as single dose and measured upto 24 hrs by LC-MS/MS analysis
Format: ADME, organism-based
Settings: in vivo
assay endpoint: half-life (h)
Reply with just the number (in h).

Req: Param item = "O=C(O)c1cn(C2CC2)c2cc(Nc3nccc(Cc4ccc(F)cc4F)n3)ccc2c1=O" ; retrieve measured half-life.
Resp: 2.16

###

Assay: Oral bioavailability in male Sprague-Dawley rat at 20 mg/kg administered as single dose and measured upto 24 hrs by LC-MS/MS analysis
Assay type: ADME, organism-based
Settings: in vivo
assay endpoint: bioavailability (%)
Express the result in % but write the number alone.

Req: // bioavailability lookup, key: "O=C(O)c1cn(C2CC2)c2cc(Nc3nccc(Cc4ccc(F)cc4F)n3)ccc2c1=O"
Resp: 0.9

###

Experiment: Initial drug concentration in male Sprague-Dawley rat at 10 mg/kg, iv administered as single dose and measured upto 24 hrs by LC-MS/MS analysis
Assay type: ADME, organism-based
Settings: in vivo
assay endpoint: C0 at 24 h (ng/mL)
Enter your answer as a number in ng/mL; do not include the unit.

Req: I'd like to know its C0 at 24 h. The molecule in question is "O=C(O)c1cn(C2CC2)c2cc(Nc3nccc(Cc4ccc(F)cc4F)n3)ccc2c1=O"
Resp: 11800

###

Assay: Half life in male Sprague-Dawley rat at 10 mg/kg, iv administered as single dose and measured upto 24 hrs by LC-MS/MS analysis
Type: ADME, organism-based
Settings: in vivo
assay endpoint: half-life
Enter the number, and then the unit.

Req: I am curious: what half-life value has been reported for "O=C(O)c1cn(C2CC2)c2cc(Nc3nccc(Cc4ccc(F)cc4F)n3)ccc2c1=O" ?
Resp: 4.23 h

###

Test: Metabolic stability in human liver microsomes assessed as compound remaining at 1 uM measured after 60 mins by LC-MS/MS analysis
Assay type: ADME, Microsome
Conditions: read-out: Stability
assay endpoint: remaining at 1 h, 1 µM (%)
Give a bare numeral; the unit % is implied.

Req: Look up remaining at 1 h, 1 µM for this compound: "Cc1ncc2n1-c1ccc(Cl)cc1C(c1ccccc1F)=NC2"
Resp: 0.691

Req: Could you tell me which remaining at 1 h, 1 µM is on file for "O=C(O)c1cn(C2CC2)c2cc(Nc3nccc(Cc4ccc(F)cc4F)n3)ccc2c1=O" ?
Resp: 40.9

Req: # query: remaining at 1 h, 1 µM of entry "Cc1ccc(Cc2ccnc(Nc3ccc4c(=O)c(C(=O)O)cn(C5CC5)c4c3)n2)cc1C"
Resp: 41.1

Reference for the values: ChEMBL document CHEMBL5500358
